Reference for the values: patent US20090232838A1

# measured.target: hMC5-R (Homo sapiens, UniProt P33032)
# Construct: expressed in transfected cells; host or cells: CHO-K1
# Sequence (P33032 whole entry): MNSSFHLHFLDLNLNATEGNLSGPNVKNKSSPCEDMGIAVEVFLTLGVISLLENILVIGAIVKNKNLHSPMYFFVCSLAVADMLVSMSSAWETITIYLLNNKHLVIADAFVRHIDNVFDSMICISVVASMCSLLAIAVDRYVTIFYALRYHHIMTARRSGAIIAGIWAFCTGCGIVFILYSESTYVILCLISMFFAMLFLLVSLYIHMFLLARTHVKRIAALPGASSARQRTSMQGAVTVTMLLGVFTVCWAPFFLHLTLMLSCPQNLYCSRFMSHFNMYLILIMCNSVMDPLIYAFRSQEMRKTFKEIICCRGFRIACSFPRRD
# assay.protocol: cyclic AMP bioassay, hMC5-R
# Format: cell-based
pEC50: −log10 of the molar value. Where a SMILES comes first, the peptide text is derived from it. Bridges are numbered along the chain shown (N, C = ends). [ ]: non-standard residue; d: D form. 1Nal = N[C@@H](Cc1cccc2ccccc12)C(=O)O; d2Nal = N[C@H](Cc1ccc2ccccc2c1)C(=O)O

compound	pEC50
CC(=O)N[C@H]1CSSC[C@@H](C(=O)N2CCC[C@H]2C(=O)N2CCC[C@H]2C(=O)N[C@@H](CCCCN)C(=O)N[C@@H](CC(=O)O)C(N)=O)NC(=O)[C@H](C)NC(=O)[C@H](Cc2cccc3ccccc23)NC(=O)[C@H](CCCNC(=N)N)NC(=O)[C@@H](Cc2ccc3ccccc3c2)NC(=O)[C@H](Cc2c[nH]cn2)NC(=O)[C@H](CCC(=O)O)NC1=O (Ac-CEH[d2Nal]R[1Nal]ACPPKD-NH2; disulfide 1-8)	6.98
CCCC[C@H](NC(C)=O)C(=O)N[C@H]1CSSC[C@@H](C(=O)NCCC(=O)N[C@@H](CCCNC(=N)N)C(=O)N[C@@H](CCCNC(=N)N)C(=O)N[C@@H](CCCNC(=N)N)C(=O)N[C@@H](CCCNC(=N)N)C(=O)N[C@@H](CCCNC(=N)N)C(=O)N[C@@H](CCC(N)=O)C(=O)N[C@@H](CCCNC(=N)N)C(=O)N[C@@H](CCCNC(=N)N)C(=O)N[C@@H](CCCNC(=N)N)C(N)=O)NC(=O)[C@H](Cc2c[nH]c3ccccc23)NC(=O)[C@H](CCCNC(=N)N)NC(=O)[C@@H](Cc2ccccc2)NC(=O)[C@H](Cc2c[nH]cn2)NC(=O)[C@@H](C)NC1=O	5.80

----------
# measured.target: hMC5-R (Homo sapiens)
# Construct: expressed in transfected cells; host or cells: CHO-K1
# assay.protocol: cyclic AMP bioassay, hMC5-R
# Format: cell-based
pEC50: −log10 of the molar value. Where a SMILES comes first, the peptide text is derived from it. Bridges are numbered along the chain shown (N, C = ends). [ ]: non-standard residue; d: D form. 2Nal = N[C@@H](Cc1ccc2ccccc2c1)C(=O)O; d2Nal = N[C@H](Cc1ccc2ccccc2c1)C(=O)O; Bta = N[C@@H](Cc1csc2ccccc12)C(=O)O; Aib = CC(C)(N)C(=O)O
Let's look at some compounds and their measured pEC50.

compound	pEC50
CC(=O)N[C@H]1CSSC[C@@H](C(=O)N2CCC[C@H]2C(=O)N2CCC[C@H]2C(=O)N[C@@H](CCCCN)C(=O)N[C@@H](CC(=O)O)C(N)=O)NC(=O)[C@H](C)NC(=O)[C@H](Cc2csc3ccccc23)NC(=O)[C@H](CCCNC(=N)N)NC(=O)[C@@H](Cc2ccc3ccccc3c2)NC(=O)[C@H](Cc2c[nH]cn2)NC(=O)[C@H](CCC(=O)O)NC1=O (Ac-CEH[d2Nal]R[Bta]ACPPKD-NH2; disulfide 1-8)	6.75
CCCC[C@H](NC(C)=O)C(=O)N[C@H]1CSSC[C@@H](C(=O)NCCC(=O)NCC(=O)N[C@@H](CCCNC(=N)N)C(=O)N[C@@H](CCCNC(=N)N)C(=O)N[C@@H](CCCNC(=N)N)C(=O)N[C@@H](CCCNC(=N)N)C(=O)N[C@@H](CCCNC(=N)N)C(=O)N[C@@H](CCC(N)=O)C(=O)N[C@@H](CCCNC(=N)N)C(=O)N[C@@H](CCCNC(=N)N)C(=O)N[C@@H](CCCNC(=N)N)C(N)=O)NC(=O)[C@H](Cc2c[nH]c3ccccc23)NC(=O)[C@H](CCCNC(=N)N)NC(=O)[C@@H](Cc2ccccc2)NC(=O)[C@H](Cc2c[nH]cn2)NC(=O)[C@@H](C)NC1=O	5.70
CC(=O)N[C@H]1CSSC[C@@H](C(=O)N2CCC[C@H]2C(=O)N2CCC[C@H]2C(=O)N[C@@H](CCCCN)C(=O)N[C@@H](CC(=O)O)C(N)=O)NC(=O)C(C)(C)NC(=O)[C@H](Cc2ccc3ccccc3c2)NC(=O)[C@H](CCCNC(=N)N)NC(=O)[C@@H](Cc2ccc3ccccc3c2)NC(=O)[C@H](Cc2c[nH]cn2)NC(=O)[C@H](CCC(=O)O)NC1=O (Ac-CEH[d2Nal]R[2Nal][Aib]CPPKD-NH2; disulfide 1-8)	6.06
